Tested on: RAW-Dual
Test summary: NF-kB SEAP reporter activity, fold change vs agonist alone; higher = enhanced NF-kB activity
Conditions used: library stock concentration (final ~1000-fold dilution): 10 mM; cytotoxicity flag (confluency mask): not cytotoxic; agonist: MPLA (TLR4) […]
In all, about 2,900 compounds were measured (“NF-kB SEAP reporter activity, fold change vs agonist alone”: median about 0.99, highest 2% from about 2.6 on). This is one part of a sample in which the highest values are shown more often than they occur.
Rule: NF-kB SEAP reporter activity of 1 or more gives true (1); anything lower gives false (0).

# example entries with known answers
[
  {
    "Compound": "COc1cc(-c2oc3cc(O)cc(O)c3c(=O)c2OC2OC(CO)C(O)C(O)C2OC2OC(C)C(O)C(O)C2O)ccc1O (stereo not given)",
    "Tgt": "RAW-Dual",
    "Label value": "true (1)"
  },
  {
    "Compound": "CC(C(=O)O)c1cccc(C(=O)c2ccccc2)c1 (stereo not given)",
    "Tgt": "RAW-Dual",
    "Label value": "true (1)"
  },
  {
    "Compound": "COc1cc(/C=C/CO)cc(OC)c1OC1OC(CO)C(O)C(O)C1O (stereo not given)",
    "Tgt": "RAW-Dual",
    "Label value": "true (1)"
  },
  {
    "Compound": "C=CC(=O)Nc1cccc(Sc2nc(Nc3ccc(N4CCN(C)CC4)cc3)ncc2Cl)c1",
    "Tgt": "RAW-Dual",
    "Label value": "false (0)"
  },
  {
    "Compound": "C=C1CCC2C(C)(CO)C(O)CCC2(C)C1C/C=C1/C(=O)OCC1O (stereo not given)",
    "Tgt": "RAW-Dual",
    "Label value": "false (0)"
  }
]

Reported NF-kB SEAP reporter activity reaches at least 1 for CC(C)CC(NC(=O)CNC(=O)c1cc(Cl)ccc1Cl)B1OC(=O)CC(CC(=O)O)(C(=O)O)O1 (stereo not given) ? false (0)

Entry to check: COc1ccc(CCC(=O)N(c2nccc3ccccc23)C2CCCNC2)cc1 (stereo not given) true (1)

Would you kindly repeat that for `Nc1nc2cc(-c3ccc4ncc(C(=O)N5CCOCC5)n4c3)ccc2o1` ? true (1)

Another compound to look at: `Cn1c(-c2ccccc2C(F)(F)F)nnc1C12CCC(c3noc(C4CC(F)(F)C4)n3)(CC1)CC2` true (1)

The reported measurements were obtained from the supplement of paper PMC10037445.
